Target: DNA topoisomerase 1 (Homo sapiens)
Sequence (whole entry): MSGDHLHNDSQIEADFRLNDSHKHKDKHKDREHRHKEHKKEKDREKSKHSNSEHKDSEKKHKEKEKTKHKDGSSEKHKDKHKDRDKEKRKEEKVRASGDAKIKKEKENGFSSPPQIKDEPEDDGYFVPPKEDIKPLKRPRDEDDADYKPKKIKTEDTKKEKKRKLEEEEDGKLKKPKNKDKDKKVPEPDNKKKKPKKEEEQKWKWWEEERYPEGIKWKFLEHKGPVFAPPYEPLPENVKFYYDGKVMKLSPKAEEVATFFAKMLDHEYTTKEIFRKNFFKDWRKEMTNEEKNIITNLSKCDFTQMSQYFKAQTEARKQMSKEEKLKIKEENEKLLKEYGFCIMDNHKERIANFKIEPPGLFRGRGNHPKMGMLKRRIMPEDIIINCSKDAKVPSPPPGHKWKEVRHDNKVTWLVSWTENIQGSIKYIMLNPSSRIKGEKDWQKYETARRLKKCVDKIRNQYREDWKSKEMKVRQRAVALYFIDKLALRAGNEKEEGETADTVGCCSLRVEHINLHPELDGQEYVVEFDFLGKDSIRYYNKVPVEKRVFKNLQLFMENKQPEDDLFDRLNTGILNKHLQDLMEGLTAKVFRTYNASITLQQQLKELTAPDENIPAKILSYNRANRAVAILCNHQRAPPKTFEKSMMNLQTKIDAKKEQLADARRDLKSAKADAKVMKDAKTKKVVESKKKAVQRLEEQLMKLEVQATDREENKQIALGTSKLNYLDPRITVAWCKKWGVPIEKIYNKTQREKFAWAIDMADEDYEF
Assay: Inhibition of human topoisomerase 1-mediated relation of supercoiled DNA at 500 uM after 45 mins
Activity calls are given as the source filed them. The rule behind the calls is not given here.
Endpoint Label: inhibition

compound_structure=C[C@@H]1O[C@@H](Oc2cc(O)c3c(=O)c(O[C@@H]4O[C@H](CO)[C@@H](O)[C@H](O)[C@H]4O[C@@H]4O[C@@H](C)[C@H](O)[C@@H](O)[C@H]4O)c(-c4ccc(O)cc4)oc3c2)[C@H](O)[C@H](O)[C@H]1O endpoint_result=Active
compound_structure=C[C@@H]1O[C@@H](Oc2cc(O)c3c(=O)c(O[C@@H]4O[C@H](CO)[C@@H](O)[C@H](O)[C@H]4O)c(-c4ccc(O)cc4)oc3c2)[C@H](O)[C@H](O)[C@H]1O endpoint_result=94%
compound_structure=C[C@@H]1O[C@@H](Oc2cc(O)c3c(=O)c(O[C@@H]4OC[C@H](O)[C@H](O)[C@H]4O)c(-c4ccc(O)cc4)oc3c2)[C@H](O)[C@H](O)[C@H]1O endpoint_result=Active
compound_structure=CC(=O)OC[C@]1(O)CO[C@H](Oc2c(-c3ccc(O)cc3)oc3cc(O[C@@H]4O[C@@H](C)[C@H](O)[C@@H](O)[C@H]4O)cc(O)c3c2=O)[C@H]1O endpoint_result=Active
compound_structure=C[C@@H]1O[C@@H](Oc2cc(O)c3c(=O)c(O[C@@H]4O[C@H](CO)[C@H](O)[C@H](O)[C@H]4O)c(-c4ccc(O)cc4)oc3c2)[C@H](O)[C@H](O)[C@H]1O endpoint_result=Active
compound_structure=C[C@@H]1O[C@@H](Oc2cc(O)c3c(=O)c(O[C@@H]4O[C@H](CO)[C@H](O)[C@H](O)[C@H]4O[C@@H]4O[C@@H](C)[C@H](O)[C@@H](O)[C@H]4O)c(-c4ccc(O)cc4)oc3c2)[C@H](O)[C@H](O)[C@H]1O endpoint_result=Active

The measured values listed here are drawn from ChEMBL document CHEMBL1926537.
